# Study system: CNS nicotinic receptors (Rattus norvegicus, UniProt P09483+P12390)
# Sequence (P09483 31-630): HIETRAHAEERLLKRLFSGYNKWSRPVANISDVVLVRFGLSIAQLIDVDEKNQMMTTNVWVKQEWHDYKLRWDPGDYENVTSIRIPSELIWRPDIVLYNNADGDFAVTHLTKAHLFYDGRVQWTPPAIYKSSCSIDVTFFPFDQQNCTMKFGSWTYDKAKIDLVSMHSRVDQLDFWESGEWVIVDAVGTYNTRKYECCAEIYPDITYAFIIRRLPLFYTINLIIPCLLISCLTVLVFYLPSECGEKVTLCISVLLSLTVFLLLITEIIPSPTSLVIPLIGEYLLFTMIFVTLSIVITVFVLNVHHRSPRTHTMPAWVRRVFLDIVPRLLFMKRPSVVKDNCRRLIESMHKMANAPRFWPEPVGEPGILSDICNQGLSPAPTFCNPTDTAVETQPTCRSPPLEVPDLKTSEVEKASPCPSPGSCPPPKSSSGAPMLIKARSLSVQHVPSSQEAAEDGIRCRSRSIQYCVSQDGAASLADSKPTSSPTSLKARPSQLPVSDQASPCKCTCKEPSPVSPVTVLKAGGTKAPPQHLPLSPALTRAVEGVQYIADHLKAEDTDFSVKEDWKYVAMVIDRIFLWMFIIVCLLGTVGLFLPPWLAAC
# Sequence (P12390 25-500): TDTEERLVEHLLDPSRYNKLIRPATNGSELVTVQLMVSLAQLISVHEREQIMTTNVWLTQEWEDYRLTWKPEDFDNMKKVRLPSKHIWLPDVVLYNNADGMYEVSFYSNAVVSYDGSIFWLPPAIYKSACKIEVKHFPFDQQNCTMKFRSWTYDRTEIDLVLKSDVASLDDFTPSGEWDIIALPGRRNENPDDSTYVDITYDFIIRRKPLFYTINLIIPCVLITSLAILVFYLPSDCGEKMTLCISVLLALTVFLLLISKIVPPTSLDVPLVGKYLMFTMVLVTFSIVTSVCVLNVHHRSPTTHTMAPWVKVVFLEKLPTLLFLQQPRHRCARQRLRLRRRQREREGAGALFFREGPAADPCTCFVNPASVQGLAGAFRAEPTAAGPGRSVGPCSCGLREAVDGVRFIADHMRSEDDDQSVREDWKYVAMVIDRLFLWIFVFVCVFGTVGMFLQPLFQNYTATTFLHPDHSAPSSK
# Test description: Determination of binding to relevant receptor sites
# Test settings: read-out: Ki (inhibition constant, receptor binding)
pKi: −log10 of the molar value.

{"Substance smiles": "Oc1ccc(Oc2cncc(C#C[C@@H]3CCCN3)c2)cc1", "pKi": 8.70}
